# MEASUREMENT_PARAMETERS: in THF, 293.15 K

COMPOUND | solubility (mole fraction)
COc1ccccc1OCCNCC(O)COc1cccc2[nH]c3ccccc3c12 (stereo unspecified) | 0.00118

###

# MEASUREMENT_PARAMETERS: in ethanol, 293.15 K
READOUT_NAME: solubility (mole fraction)

COMPOUND | VALUE_OBSERVED
COc1ccccc1OCCNCC(O)COc1cccc2[nH]c3ccccc3c12 (stereo unspecified) | 0.00143

###

# MEASUREMENT_PARAMETERS: in ethyl acetate, 303.15 K
READOUT_NAME: solubility (mole fraction)

COMPOUND | VALUE_OBSERVED
COc1ccccc1OCCNCC(O)COc1cccc2[nH]c3ccccc3c12 (stereo unspecified) | 0.00294

###

# MEASUREMENT_PARAMETERS: in ethanol, 298.15 K

COMPOUND | solubility (mole fraction)
COc1ccccc1OCCNCC(O)COc1cccc2[nH]c3ccccc3c12 (stereo unspecified) | 0.00185

###

# MEASUREMENT_PARAMETERS: in water, 298.15 K
READOUT_NAME: solubility (mole fraction)

COMPOUND | VALUE_OBSERVED
COc1ccccc1OCCNCC(O)COc1cccc2[nH]c3ccccc3c12 (stereo unspecified) | 0.0398

###

# MEASUREMENT_PARAMETERS: in ethyl acetate, 313.15 K
READOUT_NAME: solubility (mole fraction)

MOLECULE | READOUT_NAME | VALUE_OBSERVED
COc1ccccc1OCCNCC(O)COc1cccc2[nH]c3ccccc3c12 (stereo unspecified) | solubility (mole fraction) | 0.00424

###

# MEASUREMENT_PARAMETERS: in water, 288.15 K
READOUT_NAME: solubility (mole fraction)

MOLECULE | READOUT_NAME | VALUE_OBSERVED
COc1ccccc1OCCNCC(O)COc1cccc2[nH]c3ccccc3c12 (stereo unspecified) | solubility (mole fraction) | 0.0278

###

# MEASUREMENT_PARAMETERS: in acetone, 288.15 K
READOUT_NAME: solubility (mole fraction)

MOLECULE | VALUE_OBSERVED
COc1ccccc1OCCNCC(O)COc1cccc2[nH]c3ccccc3c12 (stereo unspecified) | 0.00117

###

# MEASUREMENT_PARAMETERS: in THF, 313.15 K

COMPOUND | solubility (mole fraction)
COc1ccccc1OCCNCC(O)COc1cccc2[nH]c3ccccc3c12 (stereo unspecified) | 0.004

###

# MEASUREMENT_PARAMETERS: in ethanol, 288.15 K

MOLECULE | solubility (mole fraction)
COc1ccccc1OCCNCC(O)COc1cccc2[nH]c3ccccc3c12 (stereo unspecified) | 0.00112

###

# MEASUREMENT_PARAMETERS: in ethanol, 303.15 K

COMPOUND | solubility (mole fraction)
COc1ccccc1OCCNCC(O)COc1cccc2[nH]c3ccccc3c12 (stereo unspecified) | 0.00246

###

# MEASUREMENT_PARAMETERS: in ethyl acetate, 278.15 K

COMPOUND | solubility (mole fraction)
COc1ccccc1OCCNCC(O)COc1cccc2[nH]c3ccccc3c12 (stereo unspecified) | 0.00063

###

# MEASUREMENT_PARAMETERS: in acetone, 293.15 K

COMPOUND | solubility (mole fraction)
COc1ccccc1OCCNCC(O)COc1cccc2[nH]c3ccccc3c12 (stereo unspecified) | 0.00154

###

# MEASUREMENT_PARAMETERS: in acetone, 283.15 K
READOUT_NAME: solubility (mole fraction)

COMPOUND | VALUE_OBSERVED
COc1ccccc1OCCNCC(O)COc1cccc2[nH]c3ccccc3c12 (stereo unspecified) | 0.00088

###

# MEASUREMENT_PARAMETERS: in water, 283.15 K
READOUT_NAME: solubility (mole fraction)

COMPOUND | VALUE_OBSERVED
COc1ccccc1OCCNCC(O)COc1cccc2[nH]c3ccccc3c12 (stereo unspecified) | 0.0232

###

# MEASUREMENT_PARAMETERS: in methanol, 288.15 K
READOUT_NAME: solubility (mole fraction)

COMPOUND | VALUE_OBSERVED
COc1ccccc1OCCNCC(O)COc1cccc2[nH]c3ccccc3c12 (stereo unspecified) | 0.00114

###

# MEASUREMENT_PARAMETERS: in acetone, 313.15 K

COMPOUND | solubility (mole fraction)
COc1ccccc1OCCNCC(O)COc1cccc2[nH]c3ccccc3c12 (stereo unspecified) | 0.0046

###

# MEASUREMENT_PARAMETERS: in ethyl acetate, 288.15 K

COMPOUND | solubility (mole fraction)
COc1ccccc1OCCNCC(O)COc1cccc2[nH]c3ccccc3c12 (stereo unspecified) | 0.00146

###

# MEASUREMENT_PARAMETERS: in methanol, 313.15 K

COMPOUND | solubility (mole fraction)
COc1ccccc1OCCNCC(O)COc1cccc2[nH]c3ccccc3c12 (stereo unspecified) | 0.00419

###

# MEASUREMENT_PARAMETERS: in acetone, 308.15 K

MOLECULE | solubility (mole fraction)
COc1ccccc1OCCNCC(O)COc1cccc2[nH]c3ccccc3c12 (stereo unspecified) | 0.00354

###

# MEASUREMENT_PARAMETERS: in THF, 288.15 K
READOUT_NAME: solubility (mole fraction)

COMPOUND | READOUT_NAME | VALUE_OBSERVED
COc1ccccc1OCCNCC(O)COc1cccc2[nH]c3ccccc3c12 (stereo unspecified) | solubility (mole fraction) | 0.00085

###

# MEASUREMENT_PARAMETERS: in THF, 283.15 K

COMPOUND | solubility (mole fraction)
COc1ccccc1OCCNCC(O)COc1cccc2[nH]c3ccccc3c12 (stereo unspecified) | 0.00061

###

# MEASUREMENT_PARAMETERS: in THF, 303.15 K
READOUT_NAME: solubility (mole fraction)

COMPOUND | READOUT_NAME | VALUE_OBSERVED
COc1ccccc1OCCNCC(O)COc1cccc2[nH]c3ccccc3c12 (stereo unspecified) | solubility (mole fraction) | 0.00227

###

# MEASUREMENT_PARAMETERS: in THF, 278.15 K
READOUT_NAME: solubility (mole fraction)

MOLECULE | READOUT_NAME | VALUE_OBSERVED
COc1ccccc1OCCNCC(O)COc1cccc2[nH]c3ccccc3c12 (stereo unspecified) | solubility (mole fraction) | 0.00043

###

# MEASUREMENT_PARAMETERS: in ethyl acetate, 293.15 K

COMPOUND | solubility (mole fraction)
COc1ccccc1OCCNCC(O)COc1cccc2[nH]c3ccccc3c12 (stereo unspecified) | 0.00187

Numbers sourced from BigSolDB 2.1.
